# Lookup of reported normalized growth keyed by entry
assay-overview: chemical genetic growth profiling, strain panel (AID 1159580);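 also: tested at 20 µM; growth read once vehicle control cultures reached saturation at 30 °C; 1 = growth at the plate median or of vehicle wells; lower values mean less growth of the strain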
run-parameters: S. cerevisiae deletion strains, growth OD, locus YMR223W, strain ubp8, hits give low values
In all, about 5,500 compounds went through this assay and about 2,000 (36%) were called active. Inconclusive results (about 18%) are left out. Some of the results follow.
assay-readout: normalized growth

INSERT INTO results (compound, value_observed) VALUES
  ('C=C[C@@](C)(O)CCC1C(=C)C[C@H](OC(C)=O)C2C(C)(C)CCCC12C (stereo partly specified)', 0.986),
  ('C=C[C@@](C)(O)CCC1C(=C)C[C@H](O)C2C(C)(C)CCCC12C (stereo partly specified)', 1.02),
  ('N[C@@H](Cc1ccc(N(CCCl)CCCl)cc1)C(=O)O', 0.987),
  ('CC1(C)CCC[C@@]2(C)C1[C@@H](O)C[C@]1(C)C2CC[C@@H]2[C@@]3(C)CC[C@H](C(C)(C)O)[C@@H]3CC[C@@]21C (stereo partly specified)', 0.998),
  ('COc1ccc(C(CN(C)C)C2(O)CCCCC2)cc1 (stereo unspecified)', 0.99),
  ('CN1CC(CO)=C[C@@H]2c3cccc4[nH]cc(c34)C[C@H]21', 1.02);

* * *

assay-overview: chemical genetic growth profiling, strain panel (AID 1159580);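 also: tested at 20 µM; growth read once vehicle control cultures reached saturation at 30 °C; 1 = growth at the plate median or of vehicle wells; lower values mean less growth of the strain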
run-parameters: S. cerevisiae deletion strains, growth OD, locus YKL190W, strain CNB1, hits give low values
Out of some 5,500 compounds screened, about 2,000 (36%) were called active. Roughly 18% stayed inconclusive and do not appear here. Some of the results follow.
assay-readout: normalized growth

INSERT INTO measurements (compound, assay_readout, value_observed) VALUES
  ('C[C@]12CCC(=O)C=C1C=CC1C2CC[C@@]2(C)C1CC[C@@]2(O)CCC(=O)O (some centres not stated)', 'normalized growth', 1.01),
  ('N[C@@H](Cc1ccc(N(CCCl)CCCl)cc1)C(=O)O', 'normalized growth', 0.98),
  ('O=C(O)/C=C/c1ccc(O)c(O)c1', 'normalized growth', 1.01),
  ('Cc1ccc(C)n1-c1ccc(C(=O)NNS(=O)(=O)c2ccc(Cl)cc2)cc1', 'normalized growth', 0.978),
  ('Cc1nn(C)c(C)c1[N+](=O)[O-]', 'normalized growth', 1),
  ('NCCc1cnc[nH]1', 'normalized growth', 0.978),
  ('CSc1nc2ccccc2[nH]1', 'normalized growth', 0.984),
  ('Cc1cc(=O)n2[nH]cnc2n1', 'normalized growth', 0.997),
  ('COc1ccc(CN(CCN(C)C)c2ccccn2)cc1', 'normalized growth', 0.996),
  ('COC(=O)c1ccc(Cl)cc1NS(=O)(=O)c1ccc(OC)c(OC)c1', 'normalized growth', 1.01),
  ('S=C1NCN(CCN2CCCC2)CN1', 'normalized growth', 0.977),
  ('CCN(CC)Cc1ccc(Nc2ccnc3cc(Cl)ccc23)cc1O', 'normalized growth', 1.01),
  ('CN(C)CCN(Cc1cccs1)c1ccccn1', 'normalized growth', 0.985),
  ('CCCCCCC(C)OC(=O)COc1cc(Cl)c(Cl)cc1Cl (configuration not stated)', 'normalized growth', 1),
  ('COc1ccc(C(c2ccc(OC)cc2)C(Cl)(Cl)Cl)cc1', 'normalized growth', 1.01),
  ('CC(=O)S[C@@H]1CC2=CC(=O)CC[C@]2(C)[C@H]2CC[C@@]3(C)[C@@H](CC[C@@]34CCC(=O)O4)C12 (some centres not stated)', 'normalized growth', 0.995),
  ('O=C1c2ccc(O)cc2O[C@H](c2cc(O)c(O)c(O)c2)[C@H]1O', 'normalized growth', 1.01);
